target_system: COX-1 (Ovis aries, UniProt P05979)
Construct: gene PTGS1; homodimer
Sequence (P05979 25-600): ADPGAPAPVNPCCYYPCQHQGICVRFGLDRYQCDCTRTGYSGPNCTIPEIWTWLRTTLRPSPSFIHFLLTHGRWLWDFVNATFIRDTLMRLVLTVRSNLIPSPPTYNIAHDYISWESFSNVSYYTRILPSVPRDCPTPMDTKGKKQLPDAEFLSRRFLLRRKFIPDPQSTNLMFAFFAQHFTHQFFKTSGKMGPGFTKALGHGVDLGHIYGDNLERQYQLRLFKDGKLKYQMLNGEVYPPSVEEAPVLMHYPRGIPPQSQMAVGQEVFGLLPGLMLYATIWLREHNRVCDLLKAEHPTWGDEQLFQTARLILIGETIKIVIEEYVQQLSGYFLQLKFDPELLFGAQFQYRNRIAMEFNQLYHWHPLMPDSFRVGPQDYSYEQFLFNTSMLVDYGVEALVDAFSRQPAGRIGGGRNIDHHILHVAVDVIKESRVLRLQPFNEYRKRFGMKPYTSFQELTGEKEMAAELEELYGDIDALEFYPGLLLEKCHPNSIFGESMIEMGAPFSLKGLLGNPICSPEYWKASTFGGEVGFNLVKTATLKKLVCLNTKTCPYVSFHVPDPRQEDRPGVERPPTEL
assay_remarks: colorimetric COX peroxidase inhibition kit, […] nm
Type: biochemical
test_conditions: read-out: Cyclooxygenase Inhibition Assay IC50 [μM] / COX-1
Threshold check on IC50: strictly below 80 µM is Satisfied; on or above 80 µM is Not satisfied.

INSERT INTO assay_data (substance_smiles, assigned_category) VALUES
  ('COc1ccccc1N1CCN(CN2C(=O)c3cc(C)n(C)c(=O)c3C2=O)CC1', 'Not satisfied');

Task item: Is it true that IC50 reported for `Cc1cc2c(c(=O)n1C)C(=O)N(CN1CCN(c3cccc(C(F)(F)F)c3)CC1)C2=O` is less than 80 µM?
Reply: Not satisfied

Task item: Is it true that IC50 reported for `COc1nc(C)cc2c1C(=O)N(CN1CCCC1)C2=O` is less than 80 µM?
Reply: Satisfied

Task item: Is it true that IC50 reported for `COc1nc(C)cc2c1C(=O)N(CCN1CCOCC1)C2=O` is less than 80 µM?
Reply: Not satisfied
